Biological target: UniProtKB P34972
Sequence (P34972 whole entry): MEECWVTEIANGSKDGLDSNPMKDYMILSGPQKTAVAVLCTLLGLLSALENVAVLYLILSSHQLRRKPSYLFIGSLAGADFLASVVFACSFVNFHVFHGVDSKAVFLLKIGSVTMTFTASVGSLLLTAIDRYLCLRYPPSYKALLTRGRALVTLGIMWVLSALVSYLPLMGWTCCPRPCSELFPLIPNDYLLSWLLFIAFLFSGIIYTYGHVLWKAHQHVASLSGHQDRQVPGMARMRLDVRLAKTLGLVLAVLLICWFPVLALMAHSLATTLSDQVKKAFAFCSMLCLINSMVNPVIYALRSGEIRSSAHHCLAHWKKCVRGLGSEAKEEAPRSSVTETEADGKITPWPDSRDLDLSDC
Experiment: Displacement of [3H]CP-55940 from human CB2 receptor at 10 uM
Response field class: string, computed from recorded Activity by ranges low bin: < 70%; mid bin: ≥ 70% and < 90%; high bin: ≥ 90%

>>> assigned_class("CC12CC3CC(C)(C1)CC(NC(=O)c1cn(Cc4ccccc4)c4ccccc4c1=O)(C3)C2")
"mid bin"
>>> assigned_class("CCCCCn1cc(C(=O)NC23CC4CC(C)(CC(C)(C4)C2)C3)c(=O)c2ccccc21")
"high bin"
>>> assigned_class("CCCCCn1cc(C(=O)N2CCOCC2)c(=O)c2ccccc21")
"low bin"
>>> assigned_class("CCCCn1cc(C(=O)NCc2ccccc2)c(=O)c2ccccc21")
"low bin"
>>> assigned_class("CCCCCn1cc(C(=O)NCc2ccccc2)c(=O)c2ccccc21")
"low bin"
>>> assigned_class("CCCCCn1cc(C(=O)NC(C)c2cccc3ccccc23)c(=O)c2ccccc21 (racemic)")
"high bin"
>>> assigned_class("CCCCCCn1cc(C(=O)Nc2cccc3ccccc23)c(=O)c2ccccc21")
"mid bin"
>>> assigned_class("CCCCCn1cc(C(=O)O)c(=O)c2ccccc21")
"low bin"
>>> assigned_class("CCCCCn1cc(C(=O)NC(C)c2ccccc2)c(=O)c2ccccc21 (racemic)")
"high bin"
>>> assigned_class("CCCCCn1cc(C(=O)NCCCc2ccccc2)c(=O)c2ccccc21")
"mid bin"
>>> assigned_class("CCCCCn1cc(C(=O)Nc2ccc(OC)cc2)c(=O)c2ccccc21")
"low bin"
>>> assigned_class("CCCCn1cc(C(=O)Nc2ccc(OC)cc2)c(=O)c2ccccc21")
"low bin"
>>> assigned_class("CCCCCn1cc(C(=O)NC2CCCc3ccccc32)c(=O)c2ccccc21 (racemic)")
"high bin"
>>> assigned_class("CCCCCn1cc(C(=O)NCCc2ccccc2)c(=O)c2ccccc21")
"high bin"
>>> assigned_class("CCCCCn1cc(C(=O)Nc2ccc3ccccc3c2)c(=O)c2ccccc21")
"low bin"
>>> assigned_class("CCCCCCn1cc(C(=O)NCc2ccccc2)c(=O)c2ccccc21")
"low bin"
>>> assigned_class("CCCCCn1cc(C(=O)NC(C)c2ccc3ccccc3c2)c(=O)c2ccccc21 (racemic)")
"mid bin"
>>> assigned_class("CCCCCn1cc(C(=O)NC23CC4CC(CC(C4)C2)C3)c(=O)c2ccccc21")
"high bin"
>>> assigned_class("CCCCCn1cc(C(=O)Nc2ccc(-c3ccccc3)cc2)c(=O)c2ccccc21")
"low bin"
>>> assigned_class("CCCCn1cc(C(=O)Nc2cccc3ccccc23)c(=O)c2ccccc21")
"mid bin"
